Property: total FIC50; scope: individual compounds
system: Mycobacterium tuberculosis Erdman (autoluminescent); assay: total FIC50 (Loewe) at 50% inhibition, three-drug combination (log2); higher = more antagonistic; conditions: in vitro model: butyrate; time point: constant (~7 days, model-specific)
Reply briefly: the number, and no unit.

Qu. GET /values?readout=total FIC50&item= CC[C@@H](CO)NCCN[C@@H](CC)CO [ethambutol] + NNC(=O)c1ccncc1 [isoniazid] + CC(=O)NC[C@H]1CN(c2ccc(N3CCOCC3)c(F)c2)C(=O)O1 [linezolid]
Ans. 0.578

* * *

Each entry below lists one item and its recorded Einf value.
test system: Mycobacterium tuberculosis Erdman (autoluminescent); assay: Einf, fitted maximum growth inhibition of three-drug combination (fraction); higher = stronger maximal inhibition; conditions: in vitro model: cholesterol-high 0.2 mM; time point: terminal (~4-5 doublings, model-specific)
Give the figure only, with no unit attached.

Qu. For the compound CC(=O)NC[C@H]1CN(c2ccc(N3CCOCC3)c(F)c2)C(=O)O1 [linezolid] + NC(=O)c1cnccn1 [pyrazinamide] + CO[C@H]1/C=C/O[C@@]2(C)Oc3c(C)c(O)c4c(O)c(c(/C=N/N5CCN(C6CCCC6)CC5)c(O)c4c3C2=O)NC(=O)/C(C)=C\C=C\[C@H](C)[C@H](O)[C@@H](C)[C@@H](O)[C@@H](C)[C@H](OC(C)=O)[C@@H]1C [rifapentine] , what Einf is on record?
Ans. 1

Qu. Reported Einf, compound NC(=O)c1cnccn1 [pyrazinamide] + CO[C@H]1/C=C/O[C@@]2(C)Oc3c(C)c(O)c4c(O)c(c(/C=N/N5CCN(C6CCCC6)CC5)c(O)c4c3C2=O)NC(=O)/C(C)=C\C=C\[C@H](C)[C@H](O)[C@@H](C)[C@@H](O)[C@@H](C)[C@H](OC(C)=O)[C@@H]1C [rifapentine] + CO[C@H]1/C=C/O[C@@]2(C)Oc3c(C)c(O)c4c(O)c(c(/C=N/N5CCN(C)CC5)c(O)c4c3C2=O)NC(=O)/C(C)=C\C=C\[C@H](C)[C@H](O)[C@@H](C)[C@@H](O)[C@@H](C)[C@H](OC(C)=O)[C@@H]1C : ____
Ans. 1

Qu. Could you tell me which Einf is on file for COc1nc2ccc(Br)cc2cc1[C@@H](c1ccccc1)[C@@](O)(CCN(C)C)c1cccc2ccccc12 [bedaquiline] + CC(C)/N=c1\cc2n(-c3ccc(Cl)cc3)c3ccccc3nc-2cc1Nc1ccc(Cl)cc1 [clofazimine] + CO[C@H]1/C=C/O[C@@]2(C)Oc3c(C)c(O)c4c(O)c(c(/C=N/N5CCN(C)CC5)c(O)c4c3C2=O)NC(=O)/C(C)=C\C=C\[C@H](C)[C@H](O)[C@@H](C)[C@@H](O)[C@@H](C)[C@H](OC(C)=O)[C@@H]1C [rifampicin] ?
Ans. 0.999

Qu. Consider the compound COc1nc2ccc(Br)cc2cc1[C@@H](c1ccccc1)[C@@](O)(CCN(C)C)c1cccc2ccccc12 [bedaquiline] + CC(C)/N=c1\cc2n(-c3ccc(Cl)cc3)c3ccccc3nc-2cc1Nc1ccc(Cl)cc1 [clofazimine] + CC(=O)NC[C@H]1CN(c2ccc(N3CCOCC3)c(F)c2)C(=O)O1 [linezolid] and give its measured Einf.
Ans. 0.999

Qu. # lookup: Einf of COc1nc2ccc(Br)cc2cc1[C@@H](c1ccccc1)[C@@](O)(CCN(C)C)c1cccc2ccccc12 [bedaquiline] + NNC(=O)c1ccncc1 [isoniazid] + CC(=O)NC[C@H]1CN(c2ccc(N3CCOCC3)c(F)c2)C(=O)O1 [linezolid]
Ans. 1

Qu. Sample NNC(=O)c1ccncc1 [isoniazid] + CC(=O)NC[C@H]1CN(c2ccc(N3CCOCC3)c(F)c2)C(=O)O1 [linezolid] + O=[N+]([O-])c1cn2c(n1)OC[C@@H](OCc1ccc(OC(F)(F)F)cc1)C2 [pretomanid] — what was its Einf?
Ans. 0.991
